In this section we review reported folding stability dG values for a set of variants.
B1: EHEE_rd2_0196 (parent)
chain: TETRTFDSEEEAKKAQKEAEKQGRTVTITRRDDRWEVRFD

Variants of: B1
Assay: folding stability dG (cDNA display proteolysis); higher = more stable
Settings: PBS, room temperature
# value in kcal/mol; strip the unit string

Some solved entries appear below for comparison.
sequence	folding stability dG / kcal/mol
TETRTFDSEEEAKKAQKEAEKQGRYVTITRRDDRWEVRFD [T25Y]	2.33
TETRTFDSEEEAKKAQKEAEKQGRTVTITRADDRWEVRFD [R31A]	2.38

// next entry
Entry under test: TETRTFDSEEEAKKAQKEAEKQGRFVTITRRDDRWEVRFD [T25F] . Its folding stability dG was 2.43
